The measured values listed here are drawn from ChEMBL document CHEMBL1201862.

We begin with a simple list: items and their reported GI50.
- System: U-251
- protocol details: NCI tumour cell line growth inhibition, 48 h
The source made the active and inactive calls. No stated cut-off is given here; in the data, active = GI50 up to about 1.1 µM and inactive = higher.
measured endpoint: GI50

- compound: "CCc1n[nH]c(=O)n1N=C(c1ccccc1)c1ccccc1"
  recorded measurement: "> 100 µM (inactive)"
- compound: "O=C(O)CCC(c1ccccc1)(c1ccccc1)c1ccccc1"
  recorded measurement: "39 µM (inactive)"
- compound: "CCOP(=O)(OCC)C(c1ccccc1)N(C(=O)NC(F)(F)F)c1ccc(C)cc1 (stereo not drawn)"
  recorded measurement: "> 100 µM (inactive)"
- compound: "COC(=O)C(CCCN1C(=O)c2ccccc2C1=O)C(=O)OC"
  recorded measurement: "> 100 µM (inactive)"
- compound: "CCOC(=O)/C(=C\\c1ccc(N(CCC#N)CCC#N)cc1)NC(=O)c1cc([N+](=O)[O-])ccc1Cl"
  recorded measurement: "> 100 µM (inactive)"
- compound: "COc1cc(/C=C2\\CCC(C)/C(=C\\c3cc(OC)c(OC)c(OC)c3)C2=O)cc(OC)c1OC (stereo not drawn)"
  recorded measurement: "4.97 µM (inactive)"
- compound: "CC1(C)COC2=C(C1)C(=O)c1ccccc1C2=O"
  recorded measurement: "1.43 µM (inactive)"
- compound: "Cc1c2cccc-2ccc2c1[nH]c1ccccc12"
  recorded measurement: "1.66 µM (inactive)"
- compound: "CCOC(=O)C1(O)C(=O)C2=C3C(=O)OC(C4OC(=O)c5c(c(O)c(O)c(O)c5C31)-c1c(cc(O)c(O)c1O)C(=O)OC1COC(=O)c3cc(O)c(O)c(O)c3-c3c(cc(O)c(O)c3O)C(=O)OC14)[C@@H]2O (stereo partly drawn)"
  recorded measurement: "19.2 µM (inactive)"
- compound: "CCc1cc(O)c(Cl)c(C)c1Cl"
  recorded measurement: "18 µM (inactive)"
- compound: "O=[N+]([O-])c1ccc2nc(/C(=N/Nc3ccccc3)C(O)c3ccc(Cl)cc3Cl)c(O)nc2c1 (stereo not drawn)"
  recorded measurement: "> 100 µM (inactive)"
- compound: "C[C@@H](CO)C1=CC(C#C[Si](C)(C)C)N(C(=O)Oc2ccccc2)c2ccccc21 (stereo partly drawn)"
  recorded measurement: "18.3 µM (inactive)"
- compound: "COc1cc2c(c3c1c(=O)c1ccccc1n3C)C=CC(C)(C)O2"
  recorded measurement: "> 100 µM (inactive)"

* * *

- System: NCI-H226
- protocol details: NCI tumour cell line growth inhibition, 48 h
Active and inactive are the calls of the source. Rule as the data show it: active = GI50 up to about 1.1 µM and inactive = higher.
We begin with a simple list: items and their reported GI50.

- compound: "CC1=Nc2c(O)nc(S)nc2NC(c2c(Cl)cccc2Cl)C1 (centres undefined)"
  GI50: "5.21 µM (inactive)"
- compound: "Cc1nn2c(=O)c([N+](=O)[O-])c(/C=C/c3ccccc3)nc2s1"
  GI50: "3.07 µM (inactive)"
- compound: "COc1cc(/C=C2\\CC/C(=C\\c3cc(OC)c(O)c(OC)c3)C2=O)cc(OC)c1O"
  GI50: "3.94 µM (inactive)"
- compound: "COc1cc(/C=C2\\N=C(c3ccccc3)N(c3cc4cc(Sc5ccccc5)ccc4[nH]3)C2=O)cc(OC)c1OC"
  GI50: "12.2 µM (inactive)"
- compound: "Cc1ccccc1NC(=O)c1cc2cc(/N=N/c3ccccc3C(=O)O)ccc2oc1=O"
  GI50: "20.8 µM (inactive)"
- compound: "N#CCN1c2ccccc2CCC1Cl (centres undefined)"
  GI50: "> 10 µM (inactive)"
- compound: "C=CC[C@@]12CCC(=O)C=C1CCCC2=O"
  GI50: "> 100 µM (inactive)"
- compound: "Cc1noc2cccc(OCc3ccccc3)c12"
  GI50: "46.5 µM (inactive)"
- compound: "N=C(N)NCC[C@H](NC(=O)OCCCCCn1ccc(=O)[nH]c1=O)C(=O)O"
  GI50: "> 100 µM (inactive)"
- compound: "COc1ccc(/C=C2\\CCc3cc(OC)c(OC)cc3C2=O)cc1"
  GI50: "> 10 µM (inactive)"
- compound: "Cc1cc(C)c(-c2no/c(=N\\S(=O)(=O)c3ccc(Cl)cc3)o2)c(C)c1"
  GI50: "> 100 µM (inactive)"
- compound: "O=c1[nH]c2ccc(C(F)(F)F)cc2nc1Cc1ccccc1"
  GI50: "17.7 µM (inactive)"
- compound: "Cc1cc(C)nc(NS(=O)(=O)c2ccc(NNC(=O)c3cccc4c(NNc5ccc(S(=O)(=O)Nc6nc(C)cc(C)n6)cc5)c5ccccc5nc34)cc2)n1"
  GI50: "25.2 µM (inactive)"
- compound: "COc1ccc(C2C3=C(COC3=O)OC(C)(C)Oc3cc4c(cc32)OCO4)cc1 (centres undefined)"
  GI50: "> 55.3 µM (inactive)"
- compound: "CCOC(=O)C1(O)C(=O)C2=C3C(=O)OC(C4OC(=O)c5c(c(O)c(O)c(O)c5C31)-c1c(cc(O)c(O)c1O)C(=O)OC1COC(=O)c3cc(O)c(O)c(O)c3-c3c(cc(O)c(O)c3O)C(=O)OC14)[C@@H]2O (some centres undefined)"
  GI50: "16.5 µM (inactive)"
- compound: "ClC1(c2ccccc2)c2ccc(Br)cc2-c2cc(Br)ccc21"
  GI50: "17.4 µM (inactive)"
- compound: "O=C1C(c2ccc([N+](=O)[O-])cc2)=[N+]([O-])c2ccccc21"
  GI50: "34.9 µM (inactive)"
- compound: "CCN(CC)CCCNc1nncc2cc3c([nH]c4ccccc43)c(C)c12"
  GI50: "11.5 µM (inactive)"
- compound: "N/C(=N\\c1ccc(Cl)c(Cl)c1)c1ccccc1N"
  GI50: "42.6 µM (inactive)"
- compound: "Cc1cc(=O)cc2sc3cc(Cl)ccc3nc1-2"
  GI50: "25.4 µM (inactive)"
- compound: "CCOC(=O)/C=C(/C(=O)OCC)n1ccc(=O)n(/C(=C/C(=O)OCC)C(=O)OCC)c1=O"
  GI50: "8.07 µM (inactive)"
- compound: "O=C(CN1c2ccccc2Sc2ccccc21)N1CCNCC1"
  GI50: "78.7 µM (inactive)"
- compound: "CC/C(=C\\c1ccc(Cl)c(Cl)c1)[N+](=O)[O-]"
  GI50: "2.23 µM (inactive)"
- compound: "O=c1c(C(c2ccco2)c2c(O)oc3ccccc3c2=O)c(O)oc2ccccc12"
  GI50: "64.9 µM (inactive)"
- compound: "COc1cc(/C=C2\\C[C@H]3[C@@H]4CC=C5C[C@@H](N6CCCC6)CC[C@]5(C)[C@H]4CC[C@]3(C)[C@H]2O)cc(OC)c1OC"
  GI50: "21.2 µM (inactive)"
- compound: "CSc1ncnc2c1ncn2CCC(=O)OC(C)(C)C"
  GI50: "> 100 µM (inactive)"
- compound: "COc1ccc(OC)c(NCC(=O)Nn2cnc3ccc(S(=O)(=O)Nc4cc(OC)ccc4OC)cc3c2=O)c1"
  GI50: "> 100 µM (inactive)"
- compound: "Cc1cc2c(cc1C)[n+]([O-])c(C#N)c(Cl)[n+]2[O-]"
  GI50: "21.7 µM (inactive)"
- compound: "CN(C)CCN1C(=O)N(CCN(C)C)c2c3cc(O)ccc3nc3c([N+](=O)[O-])ccc1c23"
  GI50: "12.6 µM (inactive)"
- compound: "COc1ccccc1[C@@H]1CCC2CC[C@@H](c3ccccc3OC)[N+]21Cc1ccccc1 (some centres undefined)"
  GI50: "1.39 µM (inactive)"
- compound: "CCCCOC(=O)NC(=O)c1cn(C2CCCCC2)c(=O)[nH]c1=O"
  GI50: "20.3 µM (inactive)"
- compound: "CN1N=C(c2ccccc2)c2cc(Cl)ccc2N=C1N/N=C/c1ccc(N(C)C)cc1"
  GI50: "58.1 µM (inactive)"
- compound: "CC(=O)Oc1ccc(-c2cc3ccccc3oc2=O)cc1OC(C)=O"
  GI50: "53.1 µM (inactive)"
- compound: "CC(O)CCNC(=O)Nc1c(C(F)(F)F)cc(-c2ccccc2)[nH]c1=O (centres undefined)"
  GI50: "> 100 µM (inactive)"
